# Tested on: Splenocyte
# measurement_notes: Immunosuppressive activity in BALB/c mouse splenocytes assessed as reduction in concanavalin-A-induced IL4 production at 30 uM after 48 hrs by ELISA
# Format: functional
# Set-up: scale not given: the % may be the effect or the level left
Below, each entry is listed alongside its reported Activity.
Could you give me the number in %? Just the number is fine.

CCCCCCCCCCN1C[C@@H](O)C(O)[C@H](O)C1    85.6

input: For `CCCCCCCCCCN1C[C@@H](O)[C@@H](O)C1` , what is its reported Activity?
output: 88.6

input: Find the recorded Activity belonging to `CCCCCCCCN1C[C@@H](O)[C@H](O)[C@@H](O)C1` and report it.
output: 8.7

input: Entry under review: `CCCCCCCCCCN1C[C@H](O)C(O)[C@@H](O)C1` . Reported Activity?
output: 95.7

input: Sample `CCCCCCCCCCN1C[C@@H](O)[C@H](O)[C@@H](O)C1` — what was its Activity?
output: 60.9

====

# System: Mus musculus
# measurement_notes: Immunosuppressive activity in C57BL/6 mouse transplanted with trunk skin of BALB/c mouse assessed as increase of allograft mean survival time at 50 umol/kg, sc (reference value: 11.25 +/- 1.83 days)
# Type: functional
Recorded MST values for a group of compounds are listed next.
Give the value, in units of days, as a plain number.

input: Tell me the measured MST of `CCCCCCCCCCN1C[C@@H](O)[C@@H](O)C1` , please.
output: 15.6

input: Value lookup for MST; key = `CCCCCCCCCCN1C[C@@H](O)C(O)[C@H](O)C1`
output: 15.2

input: Bench note: what MST did `CCCCCCCCCCN1C[C@@H](O)[C@H](O)[C@@H](O)C1` show?
output: 14.71

input: // returns reported MST for input `CCCCCCCCCCN1C[C@H](O)C(O)[C@@H](O)C1`
output: 14.14

====

# System: Splenocyte
# measurement_notes: Immunosuppressive activity in BALB/c mouse splenocytes assessed as reduction in concanavalin-A-induced IFN-gamma production at 30 uM after 48 hrs by ELISA
# Type: functional
# Parameters: scale not given: the % may be the effect or the level left
Classification field: enter 1 (yes) for Activity values not below 80%, 0 (no) for values below it.

Example entries and their recorded answers appear below.
CCCCCCCCCCN1C[C@@H](O)[C@H](O)[C@@H](O)C1    1 (yes)
CCCCCCCCCCN1C[C@@H](O)C(O)[C@H](O)C1    0 (no)
CCCCCCCCCCN1C[C@@H](O)[C@@H](O)C1    1 (yes)

Now examine the next entry.
input: Dear colleague, could you confirm whether `CCCCCCCCN1C[C@@H](O)[C@H](O)[C@@H](O)C1` has Activity at or above 80%?
output: 0 (no)
